method: Phase 1b clinical study (NCT01814826): plasma PK of PEV in combination with AZA
Type: in vivo, human
details: human, plasma, sc, plasma; MTD expansion, SC AZA cohort (N = 28); cycle 1, day 5; geometric mean
readout type: Cmax (ng/mL)
Field format: number, assumed ng/mL, no unit text.

Input NS(=O)(=O)OC[C@@H]1C[C@@H](n2ccc3c(N[C@H]4CCc5ccccc54)ncnc32)C[C@@H]1O , output reported Cmax. 148

---

method: Phase 1b clinical study (NCT01814826): plasma PK of PEV in combination with AZA
Format: in vivo, human
details: human, plasma, sc, plasma; MTD expansion, SC AZA cohort (N = 28); cycle 1, day 1; mean
readout type: half-life (h)
Field format: number, assumed h, no unit text.

Input NS(=O)(=O)OC[C@@H]1C[C@@H](n2ccc3c(N[C@H]4CCc5ccccc54)ncnc32)C[C@@H]1O , output reported half-life. 7.3

---

method: Phase 1b clinical study (NCT01814826): plasma PK of PEV in combination with AZA
Type: in vivo, human
details: human, plasma, iv, plasma; MTD expansion, IV AZA cohort (N = 26); cycle 1, day 5; median
Description: Serial blood samples for the determination of PEV concentrations were obtained during the first cycle of treatment, at pre-specified time points before and up to 48 hours after the start of the infusion on days 1 and 5.
readout type: Tmax
Report field: quantity (unit follows the number).

Input NS(=O)(=O)OC[C@@H]1C[C@@H](n2ccc3c(N[C@H]4CCc5ccccc54)ncnc32)C[C@@H]1O , output reported Tmax. 1 h

---

method: Phase 1b clinical study (NCT01814826): plasma PK of PEV in combination with AZA
Type: in vivo, human
details: human, plasma, sc, plasma; MTD expansion, SC AZA cohort (N = 28); cycle 1, day 1; geometric mean
readout type: Cmax (ng/mL)
Field format: number, assumed ng/mL, no unit text.

Input NS(=O)(=O)OC[C@@H]1C[C@@H](n2ccc3c(N[C@H]4CCc5ccccc54)ncnc32)C[C@@H]1O , output reported Cmax. 152

---

method: Phase 1b clinical study (NCT01814826): plasma PK of PEV in combination with AZA
Format: in vivo, human
details: human, plasma, iv, plasma; MTD expansion, IV AZA cohort (N = 26); cycle 1, day 1; mean
readout type: half-life
Report field: quantity (unit follows the number).

Input NS(=O)(=O)OC[C@@H]1C[C@@H](n2ccc3c(N[C@H]4CCc5ccccc54)ncnc32)C[C@@H]1O , output reported half-life. 7.45 h

---

method: Phase 1b clinical study (NCT01814826): plasma PK of PEV in combination with AZA
Assay type: in vivo, human
details: human, plasma, intravenous, plasma; dose escalation, 20 mg/m^2 cohort (N = 6); cycle 1, day 1; geometric mean
Experimental: Serial blood samples for the determination of PEV concentrations were obtained during the first cycle of treatment, at pre-specified time points before and up to 48 hours after the start of the infusion on days 1 and 5.
readout type: Cmax (ng/mL)
Field format: number, assumed ng/mL, no unit text.

Input NS(=O)(=O)OC[C@@H]1C[C@@H](n2ccc3c(N[C@H]4CCc5ccccc54)ncnc32)C[C@@H]1O , output reported Cmax. 158

---

method: Phase 1b clinical study (NCT01814826): plasma PK of PEV in combination with AZA
Type: in vivo, human
details: human, plasma, intravenous, plasma; dose escalation, 20 mg/m^2 cohort (N = 6); cycle 1, day 1; median
readout type: Tmax (h)
Field format: number, assumed h, no unit text.

Input NS(=O)(=O)OC[C@@H]1C[C@@H](n2ccc3c(N[C@H]4CCc5ccccc54)ncnc32)C[C@@H]1O , output reported Tmax. 1.06

---

method: Phase 1b clinical study (NCT01814826): plasma PK of PEV in combination with AZA
Assay type: in vivo, human
details: plasma; dose escalation, 30 mg/m^2 cohort (N = 3); cycle 1, day 1; geometric mean
Experimental: Serial blood samples for the determination of PEV concentrations were obtained during the first cycle of treatment, at pre-specified time points before and up to 48 hours after the start of the infusion on days 1 and 5.
readout type: AUC24 (ng·h/mL)
Field format: number, assumed ng·h/mL, no unit text.

Input NS(=O)(=O)OC[C@@H]1C[C@@H](n2ccc3c(N[C@H]4CCc5ccccc54)ncnc32)C[C@@H]1O , output reported AUC24. 1640

---

method: Phase 1b clinical study (NCT01814826): plasma PK of PEV in combination with AZA
Format: in vivo, human
details: plasma; MTD expansion, SC AZA cohort, N = 11; cycle 1, day 1; geometric mean
readout type: AUC48 (ng·h/mL)
Field format: number, assumed ng·h/mL, no unit text.

Input NS(=O)(=O)OC[C@@H]1C[C@@H](n2ccc3c(N[C@H]4CCc5ccccc54)ncnc32)C[C@@H]1O , output reported AUC48. 1000

---

method: Phase 1b clinical study (NCT01814826): plasma PK of PEV in combination with AZA
Assay type: in vivo, human
details: human, plasma, intravenous, plasma; dose escalation, 20 mg/m^2 cohort (N = 6); cycle 1, day 5; median
readout type: Tmax

Input NS(=O)(=O)OC[C@@H]1C[C@@H](n2ccc3c(N[C@H]4CCc5ccccc54)ncnc32)C[C@@H]1O , output reported Tmax. 59.4 min

---

method: Phase 1b clinical study (NCT01814826): plasma PK of PEV in combination with AZA
Assay type: in vivo, human
details: plasma; dose escalation, 20 mg/m^2 cohort (N = 6); cycle 1, day 5; geometric mean
readout type: AUC48 (ng·h/mL)
Field format: number, assumed ng·h/mL, no unit text.

Input NS(=O)(=O)OC[C@@H]1C[C@@H](n2ccc3c(N[C@H]4CCc5ccccc54)ncnc32)C[C@@H]1O , output reported AUC48. 1090

---

method: Phase 1b clinical study (NCT01814826): plasma PK of PEV in combination with AZA
Format: in vivo, human
details: human, plasma, intravenous, plasma; dose escalation, 20 mg/m^2 cohort (N = 6); cycle 1, day 5; mean
readout type: half-life (h)
Field format: number, assumed h, no unit text.

Input NS(=O)(=O)OC[C@@H]1C[C@@H](n2ccc3c(N[C@H]4CCc5ccccc54)ncnc32)C[C@@H]1O [PEV] , output reported half-life. 7.98

---

method: Phase 1b clinical study (NCT01814826): plasma PK of PEV in combination with AZA
Type: in vivo, human
details: plasma; MTD expansion, IV AZA cohort (N = 26); cycle 1, day 1; geometric mean
Description: Serial blood samples for the determination of PEV concentrations were obtained during the first cycle of treatment, at pre-specified time points before and up to 48 hours after the start of the infusion on days 1 and 5.
readout type: AUC24
Report field: quantity (unit follows the number).

Input NS(=O)(=O)OC[C@@H]1C[C@@H](n2ccc3c(N[C@H]4CCc5ccccc54)ncnc32)C[C@@H]1O , output reported AUC24. 861 ng·h/mL

---

method: Phase 1b clinical study (NCT01814826): plasma PK of PEV in combination with AZA
Assay type: in vivo, human
details: plasma; dose escalation, 20 mg/m^2 cohort (N = 6); cycle 1, day 1; geometric mean
readout type: AUC24 (ng·h/mL)
Field format: number, assumed ng·h/mL, no unit text.

Input NS(=O)(=O)OC[C@@H]1C[C@@H](n2ccc3c(N[C@H]4CCc5ccccc54)ncnc32)C[C@@H]1O , output reported AUC24. 990

---

method: Phase 1b clinical study (NCT01814826): plasma PK of PEV in combination with AZA
Assay type: in vivo, human
details: plasma; dose escalation, 20 mg/m^2 cohort (N = 6); cycle 1, day 1; geometric mean
readout type: AUC48 (ng·h/mL)
Field format: number, assumed ng·h/mL, no unit text.

Input NS(=O)(=O)OC[C@@H]1C[C@@H](n2ccc3c(N[C@H]4CCc5ccccc54)ncnc32)C[C@@H]1O , output reported AUC48. 1110

---

method: Phase 1b clinical study (NCT01814826): plasma PK of PEV in combination with AZA
Format: in vivo, human
details: human, plasma, iv, plasma; MTD expansion, IV AZA cohort (N = 26); cycle 1, day 5; geometric mean
readout type: Cmax (ng/mL)
Field format: number, assumed ng/mL, no unit text.

Input NS(=O)(=O)OC[C@@H]1C[C@@H](n2ccc3c(N[C@H]4CCc5ccccc54)ncnc32)C[C@@H]1O , output reported Cmax. 164

---

method: Phase 1b clinical study (NCT01814826): plasma PK of PEV in combination with AZA
Type: in vivo, human
details: human, plasma, iv, plasma; MTD expansion, IV AZA cohort (N = 26); cycle 1, day 1; geometric mean
readout type: Cmax (ng/mL)
Field format: number, assumed ng/mL, no unit text.

Input NS(=O)(=O)OC[C@@H]1C[C@@H](n2ccc3c(N[C@H]4CCc5ccccc54)ncnc32)C[C@@H]1O , output reported Cmax. 155

---

method: Phase 1b clinical study (NCT01814826): plasma PK of PEV in combination with AZA
Type: in vivo, human
details: plasma; dose escalation, 30 mg/m^2 cohort (N = 3); cycle 1, day 1; geometric mean
readout type: AUC48
Report field: quantity (unit follows the number).

Input NS(=O)(=O)OC[C@@H]1C[C@@H](n2ccc3c(N[C@H]4CCc5ccccc54)ncnc32)C[C@@H]1O [PEV] , output reported AUC48. 1770 ng·h/mL

# credit: patent US20200377958A1
